Target: T1, P2-AA-12HGe-R
T1 chain: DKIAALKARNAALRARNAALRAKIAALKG
Assay: two-hybrid library CCmax;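 also: natural log of median RNA to DNA barcode read ratio; higher means stronger binding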
Conditions: mean of both orientations

binder: DEIAALEAHNAALHAHNAALHAEIAALEG [P1-AA-12HGe-H]
interaction score: -1.54
//
binder: DEIAALEAANAALAAANAALAAEIAALEG [P1-AA-12HGe-A]
interaction score: 0.662
//
binder: DEIAALEAKNAALKAKNAALKAEIAALEG [P1-AA-12HGe-K]
interaction score: -1.01
//
binder: DEIAALEASNAALSASNAALSAEIAALEG [P1-AA-12HGe-S]
interaction score: 1
//
binder: DEIAALEADNAALDADNAALDAEIAALEG [P1-AA-12HGe-D]
interaction score: 1.33
//
binder: DEIAALEATNAALTATNAALTAEIAALEG [P1-AA-12HGe-T]
interaction score: -0.61
//
binder: DEIAALEAWNAALWAWNAALWAEIAALEG [P1-AA-12HGe-W]
interaction score: 0.108
//
binder: DEIAALEAQNAALQAQNAALQAEIAALEG [P1-AA-12HGe-Q]
interaction score: 1.56
//
binder: DEIAALEAYNAALYAYNAALYAEIAALEG [P1-AA-12HGe-Y]
interaction score: -0.521
//
binder: DEIAALEAMNAALMAMNAALMAEIAALEG [P1-AA-12HGe-M]
interaction score: 1.45
//
binder: DEIAALEARNAALRARNAALRAEIAALEG [P1-AA-12HGe-R]
interaction score: -0.893
//
binder: DEIAALEAENAALEAENAALEAEIAALEG [P1-AA]
interaction score: 2.37

Source: paper PMC10397247
